B1: Ventral anterior homeobox 1, residues 102 to 157; numbered along this chain, Q5SQQ9 (parent)
chain: RTRTSFTAEQLYRLEMEFQRCQYVVGRERTELARQLNLSETQVKVWFQNRRTKQKK

Variants of: B1
assay_remarks: abundance fitness (aPCA) (normalised: wild type 0, dead -1); higher = more abundant; growth selection in yeast, the domain comes from the species named
particulars: Homo sapiens
I would appreciate it if you labelled entries T when abundance fitness is -0.06 or higher, otherwise F.

Field: example entries. Status: answers known.
>>> discrete_label("N37G")
"T"
>>> discrete_label("T52M")
"T"
>>> discrete_label("M16C")
"T"
>>> discrete_label("L14A")
"F"

Answer whether abundance fitness of S39K is greater than or equal to -0.06.
F

Here is the next variant: V45W
T

Here is the next variant: L11M
F

Here is the next variant: Q54P
T

Here is the next variant: T4M
T

Here is the next variant: E28Q
F
